B1: TRAF3IP2 (parent)
chain: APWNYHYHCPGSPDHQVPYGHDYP

variants of: B1; assay: protein stability index of a GFP-peptide fusion (GPS, HEK-293T) (PSI 1-6); higher = more stable; conditions: c terminus: a fixed tail appended;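 also: lentivirally expressed fusions sorted by FACS into six bins by GFP to DsRed ratio, PSI derived from sequencing read proportions per bin multiplied by bin number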
# protein stability index annotations
// response body must contain only the number

Variant Descriptor | protein stability index
Q16D | 2.49
H15E | 2.43
G11T | 2.18

Noted for A1Q : its protein stability index reads 1.53

Noted for H6E : its protein stability index reads 4.43

Noted for Y5M : its protein stability index reads 3

Noted for P2K : its protein stability index reads 2.04

Noted for Q16W : its protein stability index reads 1.68
